Recorded IC50, one value per entry.
- System: RS4; 11
- TEST_NAME: Cell viability assay (MTS) in RS4; 11 cells
- Type: cell-based
- CONDITION_SUMMARY: Homo sapiens, RS4-11; Table 2; 48 hr; MTS; read-out: Anti-Cancer Activity IC50 (48 hr) RS4; 11

Problem: Form field: IC50 recorded for Cc1ncsc1-c1ccc([C@H](C)NC(=O)[C@@H]2C[C@@H](O)CN2C(=O)[C@@H](NC(=O)CCCNC(=O)c2ccc(N3CCN(CCN(C)CC4(C)CCC(c5ccc(Cl)cc5)=C(CN5CCN(c6ccc(C(=O)NS(=O)(=O)c7ccc(N[C@H](CCN8CCOCC8)CSc8ccccc8)c(S(=O)(=O)C(F)(F)F)c7)cc6)CC5)C4)CC3)cc2)C(C)(C)C)cc1 (some centres unmarked) with RS4; 11 (enter value)
Result: 20 to 100 nM

We now examine a further molecule.
Problem: Form field: IC50 recorded for Cc1ncsc1-c1ccc([C@H](C)NC(=O)[C@@H]2C[C@@H](O)CN2C(=O)[C@@H](NC(=O)CCCCCCC(=O)N2CCN(C[C@]3(C)CCC(c4ccc(Cl)cc4)=C(CN4CCN(c5ccc(C(=O)NS(=O)(=O)c6ccc(N[C@H](CCN(C)CCO)CSc7ccccc7)c(S(=O)(=O)C(F)(F)F)c6)cc5)CC4)C3)CC2)C(C)(C)C)cc1 with RS4; 11 (enter value)
Result: < 20 nM

----------
- Tested on: RS4; 11
- TEST_NAME: Cell viability assay (MTS) in RS4; 11 cells
- Type: cell-based
- CONDITION_SUMMARY: Homo sapiens, RS4-11; Table 2; 48 hr; MTS; read-out: Anti-Cancer Activity IC50 (48 hr) RS4; 11
- Description: Acute lymphoblastic leukemia cells (MOLT-4 and RS4; 11) were incubated with increasing concentrations of Bcl-xL degraders for 48 h. Cell viability was measured by tetrazolium-based MTS assay.
pIC50: −log10 of the molar value.
TEST_READOUT: pIC50

Solved cases (5 shown):
Problem: Can you look up the measured pIC50 of Cc1ncsc1-c1ccc([C@H](C)NC(=O)[C@@H]2C[C@@H](O)CN2C(=O)[C@@H](NC(=O)CCCCCNC(=O)c2ccc(N3CCN(CCN(C)CC4(C)CCC(c5ccc(Cl)cc5)=C(CN5CCN(c6ccc(C(=O)NS(=O)(=O)c7ccc(N[C@H](CCN8CCOCC8)CSc8ccccc8)c(S(=O)(=O)C(F)(F)F)c7)cc6)CC5)C4)CC3)nc2)C(C)(C)C)cc1 (stereo partly drawn) [Compound 9] for me?
Result: 7.00 to 7.70

Problem: Can you look up the measured pIC50 of Cc1ncsc1-c1ccc([C@H](C)NC(=O)[C@@H]2C[C@@H](O)CN2C(=O)[C@@H](NC(=O)CCCCCCC(=O)N2CCN(C[C@]3(C)CCC(c4ccc(Cl)cc4)=C(CN4CCN(c5ccc(C(=O)NS(=O)(=O)c6ccc(N[C@H](CCN7CCCC(F)(F)C7)CSc7ccccc7)c(S(=O)(=O)C(F)(F)F)c6)cc5)CC4)C3)CC2)C(C)(C)C)cc1 [Compound 88] for me?
Result: 5.00 to 6.30

Problem: Can you look up the measured pIC50 of Cc1ncsc1-c1ccc([C@H](C)NC(=O)[C@@H]2C[C@@H](O)CN2C(=O)[C@@H](NC(=O)CCCCCOCc2cn(CCCC(=O)NCC3(C)CCC(c4ccc(Cl)cc4)=C(CN4CCN(c5ccc(C(=O)NS(=O)(=O)c6ccc(N[C@H](CCN7CCOCC7)CSc7ccccc7)c(S(=O)(=O)C(F)(F)F)c6)cc5)CC4)C3)nn2)C(C)(C)C)cc1 (stereo partly drawn) [Compound 22] for me?
Result: 6.30 to 7.00

Problem: Can you look up the measured pIC50 of Cc1ncsc1-c1ccc([C@H](C)NC(=O)[C@@H]2C[C@@H](O)CN2C(=O)[C@@H](NC(=O)CCCCCCC(=O)N2CCN(CCC3(C)CCC(c4ccc(Cl)cc4)=C(CN4CCN(c5ccc(C(=O)NS(=O)(=O)c6ccc(N[C@H](CCN7CCOCC7)CSc7ccccc7)c(S(=O)(=O)C(F)(F)F)c6)cc5)CC4)C3)CC2)C(C)(C)C)cc1 (stereo partly drawn) [Compound 28] for me?
Result: 7.00 to 7.70

Problem: Can you look up the measured pIC50 of Cc1ncsc1-c1ccc([C@H](C)NC(=O)[C@@H]2C[C@@H](O)CN2C(=O)[C@@H](NC(=O)CCCCCCC(=O)N2CCN(C[C@]3(C)CCC(c4ccc(Cl)cc4)=C(CN4CCN(c5ccc(C(=O)NS(=O)(=O)c6ccc(N[C@H](CCN7CCCOCC7)CSc7ccccc7)c(S(=O)(=O)C(F)(F)F)c6)cc5)CC4)C3)CC2)C(C)(C)C)cc1 [Compound 59] for me?
Result: > 7.70

Continuing:
Problem: Can you look up the measured pIC50 of Cc1ncsc1-c1ccc([C@H](C)NC(=O)[C@@H]2C[C@@H](O)CN2C(=O)[C@@H](NC(=O)CCCNC(=O)c2ccc(N3CCN(CC4(C)CCC(c5ccc(Cl)cc5)=C(CN5CCN(c6ccc(C(=O)NS(=O)(=O)c7ccc(N[C@H](CCN8CCOCC8)CSc8ccccc8)c(S(=O)(=O)C(F)(F)F)c7)cc6)CC5)C4)CC3)cc2)C(C)(C)C)cc1 (stereo partly drawn) [Compound 11] for me?
Result: 7.00 to 7.70
